- Tested on: RSV (Long strain)
- Test Summary: RSV induced cell death reduction in HEp-2 cells
- Format: cell-based, respiratory syncytial virus
- Cond: human respiratory syncytial virus, HEp-2; at 11 μM; read-out: RSV activity, Maximum inhibition
Property: inhibition at 11 µM (%)
State just the number; it will be interpreted in %.

{"Record Smiles": "O=[N+]([O-])c1ccc(Nc2ccc(F)cc2)c2nonc12", "Unit Label": "%", "inhibition at 11 µM": 75}

Inquiry: Hi! What's the reported inhibition at 11 µM for Cc1cccc(Nc2ccc([N+](=O)[O-])c3nonc23)c1 on RSV (Long strain)?
Reply text: 56

Inquiry: Similarly, CCN(CC)c1cc(Cl)c2nonc2c1[N+](=O)[O-] ?
Reply text: 20

Inquiry: Next molecule: Cc1ccccc1Nc1ccc([N+](=O)[O-])c2nonc12
Reply text: 48

Inquiry: Also O=[N+]([O-])c1ccc(Sc2ccc(F)cc2)c2nonc12 , if possible.
Reply text: 53

Inquiry: Same question, O=[N+]([O-])c1ccc(Nc2ccccc2)c2nonc12 this time
Reply text: 44

Inquiry: What would you report for O=[N+]([O-])c1ccc(Nc2cccc(F)c2)c2nonc12 ?
Reply text: 73

Inquiry: Now try COc1ccc(Nc2ccc([N+](=O)[O-])c3nonc23)cc1 .
Reply text: 21
